target: purified catalytic domain of recombinant human TACE (rhTACEc) (Homo sapiens, UniProt P78536, N452Q/S266A); construct: Residue 215 to 477 with two mutation (S266A and N452Q) and a 6×His tail; 6xHis (C); made in house; host or cells: baculovirus/Hi5 insect cells; experiment: TACE kinetic assay: cleavage of internally quenched peptide substrate SPDL-3, fluorescence; type: biochemical; settings: TACE inhibitory activity, class symbols; read-out: Ki
Sequence (P78536 215-477 S266A/N452Q): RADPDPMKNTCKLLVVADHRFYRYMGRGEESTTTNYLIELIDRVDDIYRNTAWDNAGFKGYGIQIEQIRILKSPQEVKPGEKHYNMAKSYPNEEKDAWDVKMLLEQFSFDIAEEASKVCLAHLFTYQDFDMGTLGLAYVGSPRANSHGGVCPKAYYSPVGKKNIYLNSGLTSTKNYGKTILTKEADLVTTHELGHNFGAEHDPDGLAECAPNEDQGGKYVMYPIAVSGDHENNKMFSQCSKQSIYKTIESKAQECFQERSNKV
pKi: −log10 of the molar value.

>  <Molecule>
C[C@@H]1CN(c2ccccc2C#N)CCC1CNC(=O)[C@H](O)[C@@H](O)C(=O)N1CCC[C@@H]1c1ccccc1 (stereo partly shown)

>  <pKi>
> 7.70

$$$$
>  <Molecule>
C[C@@H](NC(=O)[C@H](O)[C@@H](O)C(=O)N1CCNCC1)c1ccc(-n2cccn2)cc1

>  <pKi>
6.00 to 7.00

$$$$
>  <Molecule>
C[C@H]1CN(c2ccccc2C#N)CCC1CNC(=O)[C@H](O)[C@@H](O)C(=O)N1Cc2ccccc2C1 (stereo partly shown)

>  <pKi>
6.00 to 7.00

$$$$
>  <Molecule>
C[C@@H](NC(=O)[C@H](O)[C@@H](O)C(=O)N1CCCCC1c1ccc(Cl)cc1)c1ccc(-n2cccn2)cc1 (stereo partly shown)

>  <pKi>
7.00 to 7.70

$$$$

----------
Target: purified catalytic domain of recombinant human TACE (rhTACEc) (Homo sapiens, UniProt P78536, N452Q/S266A)
Construct: Residue 215 to 477 with two mutation (S266A and N452Q) and a 6×His tail; 6xHis (C); made in house; host or cells: baculovirus/Hi5 insect cells
Test: TACE kinetic assay: cleavage of internally quenched peptide substrate SPDL-3, fluorescence
Assay type: biochemical
Settings: TACE, representative compounds, numeric values; read-out: Ki
Procedure: TACE activity is determined by a kinetic assay measuring the rate of increase in fluorescent intensity generated by TACE catalyzed cleavage of an internally quenched peptide substrate (SPDL-3). […] It is purified from the baculovirus/Hi5 cells expression system using affinity chromatography. […] MCA is (7-Methoxycoumarin-4-yl)acetyl. Dpa is N-3-(2,4-Dinitrophenyl)-L-2,3-diaminopropionyl. […]
Measured Ki of individual entries

>  <Molecule>
C[C@@H](NC(=O)[C@](C)(O)[C@@H](O)C(=O)N1CCCC1(C)c1cccc(Cl)c1)c1ccc(-n2cccn2)cc1 (stereo partly drawn) [drawing 1303]

>  <Ki>
0.75 nM

$$$$
>  <Molecule>
Cc1cccc(C)c1Cc1csc(CNC(=O)[C@H](O)[C@@H](O)C(=O)N2CCCC2c2cccc(N3CCN(C)CC3)c2)n1 (stereo partly drawn)

>  <Ki>
2.5 nM

$$$$
>  <Molecule>
CC#CCOc1cc([C@@H](C)NC(=O)[C@H](O)[C@@H](O)C(=O)N2CCC[C@@H]2c2cccc(Cl)c2)ccc1-n1cccn1 [drawing 1305]

>  <Ki>
0.85 nM

$$$$
>  <Molecule>
C[C@@H](NC(=O)[C@H](O)[C@@H](O)C(=O)N1Cc2ccncc2C1)C1CCN(c2ccccc2OC(F)(F)F)CC1

>  <Ki>
0.74 nM

$$$$
>  <Molecule>
CNc1nc([C@H]2CCCN2C(=O)[C@H](O)[C@@H](O)C(=O)N[C@H](C)c2ccc(-n3cccn3)cc2)c(C)s1 [drawing 1315]

>  <Ki>
2 nM

$$$$
>  <Molecule>
CCNc1nnc(C2c3ccccc3CN2C(=O)[C@H](O)[C@@H](O)C(=O)N[C@H](C)c2ccc(-n3cccn3)cc2)o1 (stereo partly drawn)

>  <Ki>
0.56 nM

$$$$

Data origin, for the record: patent US7652020B2
